- Tested on: CP260
- protocol notes: qHTS profiling for inhibitors of Plasmodium falciparum proliferation (AID 504749); further: nearly all actives have a fitted effect of over 60% in size
- test parameters: P. falciparum in erythrocytes, SYBR Green DNA, 72 h; series mostly up to 28.7 µM
Records with an inconclusive call do not appear. Active and inactive are the calls of the source. The call rests on the fitted dose curve; in most records, active means well fitted inhibition curve with a large enough effect; inconclusive means small, poorly fitted or top-dose-only effect; inactive means flat fitted curve, though single readings scatter.
Return exactly one item of active, inactive

Prompt line: Per the records of this test, what outcome belongs to COC(F)(F)C(Cl)Cl ?
Response line: inactive

Prompt line: Per the records of this test, what outcome belongs to C[C@]12O[C@H](C[C@]1(O)CO)n1c3ccccc3c3c4c(c5c6ccccc6n2c5c31)CNC4=O ?
Response line: active

Prompt line: Per the records of this test, what outcome belongs to CC1(C)S[C@@H]2[C@H](NC(=O)[C@@H](NC(=O)N3CCNC3=O)c3ccccc3)C(=O)N2[C@H]1C(=O)O ?
Response line: inactive

---

- Tested on: Zika virus NS2B-NS3 protease (unlinked complex)
- protocol notes: Primary screen GU Rhodamine qHTS for Zika virus inhibitors: Unlinked NS2B-NS3 protease assay (AID 1347159); further: nearly all actives have a fitted effect of over 60% in size
- test parameters: Recombinant ZIKV NS2B-NS3 protease, Rhodamine110 substrate fluorescence; series mostly up to 107 µM
Inconclusive results are not listed. Active and inactive are the calls of the source. The call rests on the fitted dose curve; in most records, active means well fitted inhibition curve with a large enough effect; inconclusive means small, poorly fitted or top-dose-only effect; inactive means no such curve, though single readings can be large or run the other way.
Return exactly one item of t for active, f for inactive

Prompt line: Per the records of this test, what outcome belongs to OC[C@H]1O[C@@H](Oc2ccc(O)c3cccc(O)c23)[C@H](O)[C@@H](O)[C@@H]1O ?
Response line: t

Prompt line: Per the records of this test, what outcome belongs to C=CC(C)(C)C1(CC2NC(=O)C3CCCN3C2=O)C(=O)Nc2cc3c(cc21)C=CC(C)(C)O3 (stereo not given) ?
Response line: f

Prompt line: Per the records of this test, what outcome belongs to CCNC(=O)CCC/C=C\C[C@@H]1[C@@H](/C=C/C(O)CCc2ccccc2)[C@@H](O)C[C@@H]1O (stereo not given in full) ?
Response line: f

Prompt line: Per the records of this test, what outcome belongs to O=C(O[C@@H]1O[C@H](CO)[C@@H](O)[C@H](O)[C@H]1O)c1c(O)cc(O)cc1/C=C/c1ccccc1 ?
Response line: f

Prompt line: Per the records of this test, what outcome belongs to CCOC(=O)N1CCC(NCCNC(=O)c2ccccc2C)CC1 ?
Response line: f

Prompt line: Per the records of this test, what outcome belongs to C=C1CC[C@@H]2[C@](C)(CC[C@H](O)[C@@]2(C)CCC=C(C)C)[C@@H]1Cc1c[nH]c2ccccc12 ?
Response line: f

Prompt line: Per the records of this test, what outcome belongs to C[C@@H](Nc1cc(NS(=O)(=O)N2CCC2)nc(SCc2cccc(F)c2F)n1)[C@@H](O)CO ?
Response line: f

Prompt line: Per the records of this test, what outcome belongs to COC(=O)C1=CO[C@@H](O[C@@H]2O[C@H](CO)[C@@H](O)[C@H](O)[C@H]2O)[C@@H]2[C@@H](C(=O)OC)[C@@H](O)C(O)[C@H]12 (stereo not given in full) ?
Response line: f

Prompt line: Per the records of this test, what outcome belongs to N#Cc1ccnc(N2C(=O)CC[C@H]2C(=O)N(c2cncc(F)c2)[C@H](C(=O)NC2CC(F)(F)C2)c2ccccc2Cl)c1 ?
Response line: f

Prompt line: Per the records of this test, what outcome belongs to COc1ccc([C@H]2Cc3cccc(O)c3C(=O)O2)cc1 ?
Response line: f

---

- Tested on: AA1029
- protocol notes: qHTS profiling for inhibitors of Plasmodium falciparum proliferation (AID 504749); further: nearly all actives have a fitted effect of over 60% in size
- test parameters: P. falciparum in erythrocytes, SYBR Green DNA, 72 h; series mostly up to 28.7 µM
Records with an inconclusive call do not appear. Active and inactive are the calls of the source. Calls follow the shape of the dose curve; as a rule, active = well fitted inhibition curve with a large enough effect; inconclusive = small, poorly fitted or top-dose-only effect; inactive = flat fitted curve, though single readings scatter.
Return exactly one item of active, inactive

Prompt line: Per the records of this test, what outcome belongs to C=C1C(=CC=C2CCC[C@@]3(C)[C@@H]2CC[C@H]3[C@H](C)CCCC(C)C)C[C@@H](O)C[C@@H]1O ?
Response line: inactive

Prompt line: Per the records of this test, what outcome belongs to O=CCCCC=O ?
Response line: inactive

Prompt line: Per the records of this test, what outcome belongs to Cc1ccccc1 ?
Response line: inactive

Prompt line: Per the records of this test, what outcome belongs to Cc1cn([C@H]2C[C@H](O)[C@@H](CO)O2)c(=O)[nH]c1=O ?
Response line: inactive

Prompt line: Per the records of this test, what outcome belongs to O=C(O)c1cc(O)c2c(c1)[O][Bi][O]2 ?
Response line: inactive

Prompt line: Per the records of this test, what outcome belongs to COC(=O)C1=C(C#N)NC(C)=C(C(=O)OC(C)C)C1c1cccc([N+](=O)[O-])c1 (configuration not stated) ?
Response line: active

Prompt line: Per the records of this test, what outcome belongs to CCOc1ccc(N=Nc2ccc(N)cc2N)cc1 ?
Response line: inactive

Prompt line: Per the records of this test, what outcome belongs to CCN(CC)Cc1cc(Nc2ccnc3cc(Cl)ccc23)ccc1O ?
Response line: active

Prompt line: Per the records of this test, what outcome belongs to CO[C@H]1C[C@@H]2CC[C@@H](C)[C@@](O)(O2)C(=O)C(=O)N2CCCC[C@H]2C(=O)O[C@H]([C@H](C)C[C@@H]2CC[C@@H](OCCO)[C@H](OC)C2)CC(=O)[C@H](C)/C=C(\C)[C@@H](O)[C@@H](OC)C(=O)[C@H](C)C[C@H](C)/C=C/C=C/C=C/1C ?
Response line: active

Prompt line: Per the records of this test, what outcome belongs to COc1ccc2c3c1O[C@H]1C[C@@H](O)C=C[C@@]31CCN(C)C2 ?
Response line: inactive

Prompt line: Per the records of this test, what outcome belongs to CCCCC(C)(O)C/C=C/[C@H]1[C@H](O)CC(=O)[C@@H]1CCCCCCC(=O)OC (some centres not stated) ?
Response line: inactive

Prompt line: Per the records of this test, what outcome belongs to CCCCCCCC(=O)O ?
Response line: inactive

Prompt line: Per the records of this test, what outcome belongs to CCNC(=O)[C@@H]1CCCN1C(=O)[C@H](CCCN=C(N)N)NC(=O)[C@H](CC(C)C)NC(=O)[C@@H](Cc1c[nH]c2ccccc12)NC(=O)[C@H](Cc1ccc(O)cc1)NC(=O)[C@H](CO)NC(=O)[C@H](Cc1c[nH]c2ccccc12)NC(=O)[C@H](Cc1cnc[nH]1)NC(=O)[C@@H]1CCC(=O)N1 ?
Response line: active

Prompt line: Per the records of this test, what outcome belongs to CCCCCCC(O)C/C=C/CCCCCCCC(=O)O (configuration not stated) ?
Response line: inactive

Prompt line: Per the records of this test, what outcome belongs to CCCCC(=O)O[C@]1(C(=O)CO)[C@H](C)C[C@H]2[C@@H]3CCC4=CC(=O)C=C[C@]4(C)[C@@]3(F)[C@@H](O)C[C@@]21C ?
Response line: inactive

Prompt line: Per the records of this test, what outcome belongs to C[C@H]1C[C@H]2[C@@H]3CCC4=CC(=O)C=C[C@]4(C)[C@@]3(F)[C@@H](O)C[C@]2(C)[C@@]1(O)C(=O)CO ?
Response line: inactive

Prompt line: Per the records of this test, what outcome belongs to CC[N+](C)(C)Cc1ccccc1Br ?
Response line: inactive

---

Answer each item with its documented Z-AUC.
- protocol notes: qHTS drug screen for cell cycle checkpoint inhibitors in PARPi-resistant BRCA-mutant ovarian cancer cell lines. (AID 1963452)
- test parameters: PEO1/OlaR viability, CellTiter-Glo luminescence, 96 h; hits give low values
Write no unit; give the number alone.

Prompt line: Give the measured Z-AUC of CCCOc1ccn2c(C(C)=O)cc(-c3ccccc3S(C)(=O)=O)c2c1 .
Response line: 2.02

Prompt line: Give the measured Z-AUC of CCNC(=O)CCC/C=C\C[C@@H]1[C@@H](/C=C/C(O)CCc2ccccc2)[C@@H](O)C[C@@H]1O (stereo partly drawn) .
Response line: 1.72

Prompt line: Give the measured Z-AUC of CC1(C)O[C@@H]2C[C@H]3[C@@H]4CCC5=CC(=O)C=C[C@]5(C)[C@H]4[C@@H](O)C[C@]3(C)[C@]2(C(=O)CO)O1 .
Response line: 0.315

Prompt line: Give the measured Z-AUC of Cc1cc(C)cc(NC(=O)Cc2ccc(OC(C)(C)C(=O)O)cc2)c1 .
Response line: -0.433

Prompt line: Give the measured Z-AUC of CN1C(=O)N[C@@H](Cc2c[nH]c3c(Cl)cccc23)C1=O .
Response line: -0.9

Prompt line: Give the measured Z-AUC of COc1cc2c(Nc3ccc(Cl)c(Cl)c3F)ncnc2cc1OCC1C[C@@H]2CN(C)C[C@@H]2C1 (stereo partly drawn) .
Response line: -0.294

Prompt line: Give the measured Z-AUC of C=C1CC[C@@H]2[C@](C)(CO)[C@H](O)CC[C@@]2(C)[C@@H]1C/C=C1/C(=O)OC[C@H]1O .
Response line: 0.643

Prompt line: Give the measured Z-AUC of CC(C)(O)CNc1nc(Nc2ccnc(C(F)(F)F)c2)nc(-c2cccc(C(F)(F)F)n2)n1 .
Response line: 0.352

Prompt line: Give the measured Z-AUC of CCOC(=O)c1ccnc(CNCC(=O)N(CC)CCN(C)C)c1 .
Response line: 1.38

Prompt line: Give the measured Z-AUC of NS(=O)(=O)NCCNc1nonc1C(=Nc1ccc(F)c(Br)c1)NO .
Response line: 1.03

Prompt line: Give the measured Z-AUC of COc1ccc2cc(OCC3(C(=O)O)CN(C(=O)c4ccc(F)cc4)C3)ccc2c1 .
Response line: -0.285

Prompt line: Give the measured Z-AUC of CC(C)C(=O)OCC(=O)[C@@]12O[C@H](C3CCCCC3)O[C@@H]1C[C@H]1[C@@H]3CCC4=CC(=O)C=C[C@]4(C)[C@H]3[C@@H](O)C[C@@]12C .
Response line: -0.223

Prompt line: Give the measured Z-AUC of O=C(NC[C@H](O)CN1CCc2ccccc2C1)c1cc(NC2COC2)ncn1 .
Response line: 0.421
